The reported measurements were obtained from ChEMBL document CHEMBL3608283.

Molecular target: UniProt P08482
Sequence (P08482 whole entry): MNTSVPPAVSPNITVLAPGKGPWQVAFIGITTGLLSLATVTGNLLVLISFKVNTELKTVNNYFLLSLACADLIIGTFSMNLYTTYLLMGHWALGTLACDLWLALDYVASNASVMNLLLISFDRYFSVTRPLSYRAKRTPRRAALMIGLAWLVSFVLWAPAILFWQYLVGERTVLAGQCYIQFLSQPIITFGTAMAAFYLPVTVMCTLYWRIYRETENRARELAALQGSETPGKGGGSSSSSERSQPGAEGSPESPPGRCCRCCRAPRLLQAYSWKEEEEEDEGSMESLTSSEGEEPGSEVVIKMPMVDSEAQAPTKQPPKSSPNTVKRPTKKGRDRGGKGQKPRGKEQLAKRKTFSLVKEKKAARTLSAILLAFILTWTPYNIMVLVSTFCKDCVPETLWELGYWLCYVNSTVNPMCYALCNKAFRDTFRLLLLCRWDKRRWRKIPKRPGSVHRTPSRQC
Test: Positive allosteric modulation of rat muscarinic M1 receptor expressed in CHO cells assessed as basal and acetylcholine-stimulated Ca2+ level by FLIPR assay
Observation Type: EC50 (nM)
The reply should be a number in nM, with the unit left off.

Molecular String: Cn1cc(-c2ccc(Cn3cc(C(=O)N[C@H]4COCC[C@@H]4O)c4ncccc43)cc2)cn1
EC50 (nM): 13.8
--
Molecular String: Cn1cc(-c2ccc(Cn3cc(C(=O)N[C@H]4CCOC[C@@]4(C)O)c4ncccc43)c(F)c2)cn1
EC50 (nM): 63.2
--
Molecular String: Cn1cc(-c2ccc(Cn3cc(C(=O)N[C@H]4COCC[C@@H]4O)c4ncccc43)cn2)cn1
EC50 (nM): 71.1
--
Molecular String: CNC(=O)c1ccc(Cn2cc(C(=O)N[C@H]3COCC[C@@H]3O)c3ncccc32)cc1
EC50 (nM): 18
--
Molecular String: Cn1cc(-c2ccc(Cn3cc(C(=O)N[C@H]4CCOC[C@@H]4O)c4ncccc43)c(F)c2)cn1
EC50 (nM): 58.6
--
Molecular String: Cn1ncc2cc(Cn3cc(C(=O)N[C@H]4COCC[C@@H]4O)c4ncccc43)ccc21
EC50 (nM): 162

Pending compound:
Item Cn1cc(-c2ccc(Cn3cc(C(=O)N[C@H]4COCC[C@@H]4O)c4ncccc43)cc2F)cn1 has what recorded EC50?
18
